For each of the sequences below, state its protein stability index.
- protocolDetails: protein stability index of a GFP-peptide fusion (yeast GPS) (PSI 1-4); higher = more stable; sorted into four equal gates, so the index is relative within each strain
- experimentalConditions: doa10∆
Answer with a bare number; do not write a unit.

Provide one value: measured protein stability index of TSQYGTPSTETAASVFK [PRE3]
1.71

Consider the sequence FHGTSTKANDKNESATI [FAS2] and give its recorded protein stability index.
3.06

Give the reported value of protein stability index for this record: ALLRENQDSVKTYALES [RPN2]
3.35

Report protein stability index, nothing else, for this sequence: SAGRIESNNPSHDASRS [SIR4]
2.85

Give the measured protein stability index for ENVKIINYLLTLAITTV [RPN2]
2.95

Please report protein stability index for the following sequence: SRRLMKSLEDLSCQYDN [RPO31]
2.04

// fetch protein stability index given entry IRKYGLNICRQCFREKA [RPS29A]
1.59

# return recorded protein stability index for entry NAVSFDTTFSDFKEVED [SRB4]
3.13

Provide measured protein stability index value, entry: LDSNFNLQREIDQAHVS [RPN14]
2.49

Provide one value: measured protein stability index of KEVIELPVKHPELFESL [RPT6]
2.98

Provide only the value of recorded protein stability index for GVDNLRRMGILKKILDQ [RPO31]
2.48

Recall and state the measured protein stability index for ELNQDRLGGDDLRIRIK [SNF5] .
3.31

Please give the documented protein stability index of LLNHGERAELETDEYIS [RPN1]
1.55

Report measured protein stability index; entry is RNILHNTVPQVTNFNST [SRB5]
1.95

Write down protein stability index measured for item LQDVIALSIADDASSAE [RPC53]
2.47

Give the measured protein stability index for VHPRKSYKMNSSAADIT [PRP8]
2.77

Using known records, supply protein stability index for CNDEDKDLETLYNKIWT [ECM29]
3.04

Please indicate protein stability index recorded for VIEEDYDDEQNTSAQHV [IRR1]
3.5

Supply reported protein stability index belonging to this sequence: IPAWFLNRQNDITDGKD [RPS18A]
2.91

Kindly indicate its recorded protein stability index. Item: ILVLALEDLKDVYASKV [PRP8]
2.29

In one line, give reported protein stability index of the entry PYAIVKGKARLGTLVNQ [RPL8A] .
2.54

Consider the sequence RPSFQNNRISNANEISA [SWP82] and give its recorded protein stability index.
2.22

Output measured protein stability index for this item: NNHNMRNNSNNKTSNNN [SWI1]
2.56

Let me know recorded protein stability index for FITAKDKYKLYPVRIPR [YJR042W/NUP85] , thanks.
2.87

Let me know recorded protein stability index for TDAGVLALKLELLDFLT [YJL039C/NUP192] , thanks.
2.84

Read off the recorded protein stability index for PTVHNSTAAAPIAAPKK [PGD1]
2.81

Return reported protein stability index. Input sequence: QKLWLLECQLFPQGLNI [SSN8]
2.16

Consider the sequence NTLNIDNTARVIFDASI [BRN1] . State its measured protein stability index.
2.14

Quote protein stability index reported for NARKVVGASVVVVKNWG [RPS12] please.
2.83

Return protein stability index (reported value) for this sequence: DHINGSGKRKPTKAAQR [GAL11]
2.3

Provide one value: measured protein stability index of GFVRNSFFSGLSPPEFL [RPO31]
2.99

Return protein stability index for the following sequence: ERLKQLTPNEIKELEHL [SWP82]
2.83

Give protein stability index for the following sequence: SIDDHPYNLNLFPNELY [RPC31]
2.14

Given TWYVGNSRGKFDDACNQ [SSN2] , respond with its protein stability index.
3.43

Please list protein stability index recorded for the sequence WTEASSSGAGTVKLYLP [ECM29]
2.05

Note down protein stability index recorded for CVHMVYEYAEHDLLQII [SSN3]
2.26

Answer with reported protein stability index of SSTLGIDLEDIKEELTK [PCI8]
2.93

Annotate the sequence TTTSNTSGTNIAGTFNV [YOR098C/NUP1] with its measured protein stability index.
3

Answer with the recorded protein stability index for the sequence listed here: SPEGRLFQVEYSLEAIK [PUP2]
2.37

Determine its reported protein stability index: KNTLLERLKQLTPNEIK [SWP82]
2.8

Please report the measured protein stability index for RQLTSLGSKKELGISLE [SNU114]
3

Check the records and state protein stability index for YLCFILSTRAGGLGLNL [SNF2]
2.32

Fill in reported protein stability index for this entry: ERLMISSDAFEVDVCDK [RET1]
2.31

State, in one line, measured protein stability index of KGRKTNKYANNDFANNL [CSL4]
3.28

Provide measured protein stability index value, entry: PRMYHIGLRQFQQIQYE [POP1]
2.06

Give a short answer stating reported protein stability index for KHWQERVKVHFDQAGKK [RPL13A] .
2.31

Give the measured protein stability index for RTSATREDTPLSQNEST [ISW2]
2.99

Look up and report measured protein stability index for this entry: GKGHLVGRLASVVAKQL [RPL16A]
1.33

In one line, give reported protein stability index of the entry SRKQKVIKTLTVDVSSP [RPL22B] .
2.52

# return recorded protein stability index for entry STKKKILGIHTSKMNLS [RPT2]
3.47

Supply measured protein stability index of SQLKKSKAQQKTAEQVA [RPL7A] in your reply.
2.7

Entry RYLAVTLQDIGFYQIKK [YMR129W/POM152] needs its protein stability index filled in; supply it.
2.53

Provide only the value of recorded protein stability index for YSVYLIHEIRLNTLNNV [SIR3]
1.85

Give reported protein stability index value for PISISNAPTFNPKYDTS [YAR002W/NUP60]
3.03

Name the recorded protein stability index of the item PNPTPSMINSVSPTNVM [PGD1] in your answer.
2.21

Output measured protein stability index for this item: FEKKLSIIKAKLPLLNE [YML103C/NUP188]
2.34

Given the sequence ASYLTPLLEAKKLVWPL [SSN2] , write its reported protein stability index.
2.13
